- System: T1, rat α-CGRP (Rattus norvegicus, UniProt P01256)
- T1 construct: rat α (1-37); purchased GenScript Corporation or Global Peptide Services
- T1 sequence (P01256 83-119 limits assumed): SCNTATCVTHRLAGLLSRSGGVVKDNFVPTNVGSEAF
- Protocol summary: Biacore SPR affinity of Fab fragments to N-biotinylated rat α-CGRP on SA chip
- Type: binding
- Condition description: 37° C., screening mode except underlined values
Recorded metric: α-rat koff
In your response, put the unit directly after the numeric value.

Dear colleague, I am looking for the recorded α-rat koff of the following molecule: M32: G1 variant; L1 R28N T30G; H2 E54K A57H; HC-FW3 L99T A100V (antibody, V domains shown) VH: EVQLVESGGGLVQPGGSLRLSCAASGFTFSNYWISWVRQAPGKGLEWVAEIRSKSDHSATHYAEAVKGRFTISRDNAKNSLYLQMNSLRAEDTAVYYCTVYFDYGLAIQNYWGQGTLVTVSS VL: EIVLTQSPATLSLSPGERATLSCKASKNVGTYVSWYQQKPGQAPRLLIYGASNRYLGIPARFSGSGSGTDFTLTISSLEPEDFAVYYCSQSYNYPYTFGQGTKLEIK
0.00296 s⁻¹

Dear colleague, I am looking for the recorded α-rat koff of the following molecule: M81: G1 variant; L1 R28N T30S; L2 L56S; H2 E54K A57N S58E; HC-FW3 L99T A100V (antibody, V domains shown) VH: EVQLVESGGGLVQPGGSLRLSCAASGFTFSNYWISWVRQAPGKGLEWVAEIRSKSDNEATHYAEAVKGRFTISRDNAKNSLYLQMNSLRAEDTAVYYCTVYFDYGLAIQNYWGQGTLVTVSS VL: EIVLTQSPATLSLSPGERATLSCKASKNVSTYVSWYQQKPGQAPRLLIYGASNRYSGIPARFSGSGSGTDFTLTISSLEPEDFAVYYCSQSYNYPYTFGQGTKLEIK
0.00429 s⁻¹
